B1: HDV Ribozyme (parent)
chain: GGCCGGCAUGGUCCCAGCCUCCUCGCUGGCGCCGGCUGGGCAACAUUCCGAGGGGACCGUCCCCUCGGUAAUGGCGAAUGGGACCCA

- Variants of: B1
- procedure-text: self-cleavage, relative activity (ratio to wild type); higher = more cleavage; co-transcriptional
property-name: self-cleavage

# mutation-list, property-name, test-value
records = [
    ("G35U C86U", "self-cleavage", 0.464),
    ("U9C C86A", "self-cleavage", 1.03),
    ("U20G G31A", "self-cleavage", 0),
    ("C24U G34U", "self-cleavage", 0.17),
    ("G34C A42C", "self-cleavage", 0.125),
    ("C21U A83C", "self-cleavage", 0.108),
    ("G31C A77G", "self-cleavage", 0.306),
    ("G10A C24U", "self-cleavage", 0.338),
    ("U46C G50A", "self-cleavage", 0.698),
    ("C26U U46G", "self-cleavage", 0.787),
    ("C3U A70G", "self-cleavage", 0.973),
    ("G59U A71U", "self-cleavage", 0.862),
    ("C3G G50C", "self-cleavage", 0.475),
    ("U27G A51C", "self-cleavage", 0.906),
    ("G28U G81A", "self-cleavage", 0.158),
    ("G39U G74C", "self-cleavage", 0.23),
]
